System: SK-MEL-28 melanoma
Assay: NCI-60 one-dose screen, 48 h (100 = growth as untreated, 0 = no growth, -100 = all killed)
Conditions: 10 µM unless noted
Procedure: Growth inhibition of the SK-MEL-28 human tumor cell line is measured as a screen for anti-cancer activity. Cells are grown in 96 well plates and exposed to the test compound for 48 hours. Compounds are tested at a single concentration, which is 10^-5 M for most compounds. The reported endpoint is percent growth (GI% or GIPRCNT), where numbers from 0 - 100% represent growth inhibition, and numbers from -100% - 0 represent cell death. For example, a value of 40 represents 60% growth inhibition. […]
Compounds without any hit were thinned out: in the full panel of roughly 83,000, 20% have a hit.
Measured growth values are reported for all entries that follow.
Write it as a number; the unit % goes unstated.

Recorded results for 2 compounds are shown here.
| smiles-input | measured-on | experimental-endpoint | recorded-result |
| --- | --- | --- | --- |
| CC(C)NS(=O)(=O)/N=C1\NC(=O)NC1=C(Cl)Cl | SK-MEL-28 melanoma | growth | 108 |
| C[C@@H]1CN(c2cnc(C(=O)Nc3cc(F)cc4cccnc34)cn2)C[C@H](C)N1 | SK-MEL-28 melanoma | growth | 94 |

In the following, a different compound is considered.
## Input Any idea what growth was measured for COC(=O)[C@@]12CC=C(C)[C@]3(C[C@H](c4ccoc4)OC3=O)[C@H]1C=C[C@@H](O)[C@@]2(O)C(=O)OC ?
## Output 105

All values here come from PubChem BioAssay (NCI).
